target entity: UniProt O70536
Sequence (O70536 whole entry): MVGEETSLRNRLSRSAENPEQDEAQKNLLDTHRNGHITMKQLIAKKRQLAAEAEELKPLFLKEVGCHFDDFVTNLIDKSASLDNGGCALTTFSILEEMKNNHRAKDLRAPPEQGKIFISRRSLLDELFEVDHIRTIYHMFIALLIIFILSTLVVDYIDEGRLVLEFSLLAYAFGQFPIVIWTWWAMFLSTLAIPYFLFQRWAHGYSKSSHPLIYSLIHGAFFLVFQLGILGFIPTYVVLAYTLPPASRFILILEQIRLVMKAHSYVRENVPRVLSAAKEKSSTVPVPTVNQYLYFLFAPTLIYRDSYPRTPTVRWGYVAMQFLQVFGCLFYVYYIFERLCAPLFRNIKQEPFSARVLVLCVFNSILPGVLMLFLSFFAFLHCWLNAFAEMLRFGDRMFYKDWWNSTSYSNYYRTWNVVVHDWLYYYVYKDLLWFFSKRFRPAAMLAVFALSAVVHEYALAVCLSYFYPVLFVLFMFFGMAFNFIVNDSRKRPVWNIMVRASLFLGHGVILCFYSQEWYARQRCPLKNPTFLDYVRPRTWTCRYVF
measurement notes: Percent change in plasma total cholesterol in an acute cholesterol-fed rat model of hypercholesterolemia, dose at 3 mg/kg
Type: functional, organism-based
Set-up: dose 3 mg/kg
Given measured Delta TC, output True if it is greater than or equal to -40% and False if not.

Identify whether the reported Delta TC of the following molecule is -40% or greater: CCCCCCCCCN1NN=C(NC(=O)Nc2c(C(C)C)cccc2C(C)C)N1
True

Identify whether the reported Delta TC of the following molecule is -40% or greater: CCCCCCCCN1NN=C(NC(=O)Nc2c(C(C)C)cccc2C(C)C)N1
True

Identify whether the reported Delta TC of the following molecule is -40% or greater: CC(C)c1cccc(C(C)C)c1NC(=O)Nc1nnn(CCCCCCCCCCCOC2CCCCO2)n1 (stereo not given)
True

Identify whether the reported Delta TC of the following molecule is -40% or greater: CCCCCCCCCCn1nnnc1NC(=O)Nc1c(C(C)C)cccc1C(C)C
True

Identify whether the reported Delta TC of the following molecule is -40% or greater: CCCCCCCCCCCCCc1cc(NC(=O)Nc2c(C(C)C)cccc2C(C)C)on1
False

Identify whether the reported Delta TC of the following molecule is -40% or greater: CCCCCCCCCCCCN1NN=C(NC(=O)Nc2c(OC)cc(OC)cc2OC)N1
False

Identify whether the reported Delta TC of the following molecule is -40% or greater: CCCCCCN1NN=C(NC(=O)Nc2c(C(C)C)cccc2C(C)C)N1
True

Identify whether the reported Delta TC of the following molecule is -40% or greater: CCCCCCCCCCCCN1NN=C(CNC(=O)Nc2c(C(C)C)cccc2C(C)C)N1
True

Identify whether the reported Delta TC of the following molecule is -40% or greater: CCCCCCCCCCN1NN=C(NC(=O)Nc2c(C(C)C)cccc2C(C)C)N1
True

Identify whether the reported Delta TC of the following molecule is -40% or greater: CCCCCCCCCCCCn1nnnc1NC(=O)Nc1c(C(C)C)cccc1C(C)C
False

Identify whether the reported Delta TC of the following molecule is -40% or greater: CCCCCCCCCCCCCCCCN1NN=C(NC(=O)Nc2c(C(C)C)cccc2C(C)C)N1
False

Identify whether the reported Delta TC of the following molecule is -40% or greater: CCCCCCCCCCCCCc1nnc(NC(=O)Nc2c(C(C)C)cccc2C(C)C)o1
True

Identify whether the reported Delta TC of the following molecule is -40% or greater: CCCCCCCCCCc1cc(NC(=O)Nc2c(C(C)C)cccc2C(C)C)on1
False

Identify whether the reported Delta TC of the following molecule is -40% or greater: CCCCCCCCCCCCN1NN=C(NC(=O)Nc2c(C(C)C)cccc2C(C)C)N1
False

Identify whether the reported Delta TC of the following molecule is -40% or greater: CCCCCCCCCCCCCCc1cc(NC(=O)Nc2c(C(C)C)cccc2C(C)C)on1
False

Cited source: ChEMBL document CHEMBL1129379
